Listing: pEC50 of selected compounds
- System: HCV replicon in Huh7 cells
- experimental.protocol: HCV replicon cell-based assay (FRET)
- Set-up: species or system HCV strain 1B
- measurement.parameters: Hepatitis C virus, Huh-7; replicon, activity range; read-out: EC50 a, b, c (Activity Table)
pEC50: −log10 of the molar value.

- compound: "C=CC1C[C@]1(NC(=O)[C@@H]1C[C@@H](Oc2cc(-c3ccccc3)nc3cc(OC)ccc23)CN1C(=O)[C@@H](NC(=O)OC(C)(C)C)C(C)(C)C)C(=O)NS(=O)(=O)c1ccc(Br)s1 (stereo in doubt) [Compound 4]"
  assayed.system: "HCV replicon in Huh7 cells"
  pEC50: "6.00 to 7.00"
- compound: "C=CC1C[C@]1(NC(=O)[C@@H]1C[C@@H](Oc2cc(-c3ccccc3)nc3cc(OC)ccc23)CN1C(=O)[C@@H](NC(=O)OC(C)(C)C)C(C)(C)C)C(=O)NS(=O)(=O)c1nc2ccc(OCC)cc2s1 (stereo in doubt) [Compound 15]"
  assayed.system: "HCV replicon in Huh7 cells"
  pEC50: "5.00 to 6.00"
- compound: "C=CC1C[C@]1(NC(=O)[C@@H]1C[C@@H](Oc2cc(-c3ccccc3)nc3cc(OC)ccc23)CN1C(=O)[C@@H](NC(=O)OC(C)(C)C)C(C)(C)C)C(=O)NS(=O)(=O)c1c(C)noc1C (stereo in doubt) [Compound 14]"
  assayed.system: "HCV replicon in Huh7 cells"
  pEC50: "6.00 to 7.00"
- compound: "C=CC1C[C@]1(NC(=O)[C@@H]1C[C@@H](Oc2cc(-c3ccccc3)nc3cc(OC)ccc23)CN1C(=O)[C@@H](NC(=O)OC(C)(C)C)C(C)(C)C)C(=O)NS(=O)(=O)c1ccc(Sc2ccc(Cl)cc2)s1 (stereo in doubt) [Compound 5]"
  assayed.system: "HCV replicon in Huh7 cells"
  pEC50: "5.00 to 6.00"
- compound: "C=CC1C[C@]1(NC(=O)[C@@H]1C[C@@H](Oc2cc(-c3ccccc3)nc3cc(OC)ccc23)CN1C(=O)[C@@H](NC(=O)OC(C)(C)C)C(C)(C)C)C(=O)NS(=O)(=O)c1ccc(-c2cc(C(F)(F)F)nn2C)s1 (stereo in doubt) [Compound 17]"
  assayed.system: "HCV replicon in Huh7 cells"
  pEC50: "6.00 to 7.00"
- compound: "C=CC1C[C@]1(NC(=O)[C@@H]1C[C@@H](Oc2cc(-c3ccccc3)nc3cc(OC)ccc23)CN1C(=O)[C@@H](NC(=O)OC(C)(C)C)C(C)(C)C)C(=O)NS(=O)(=O)c1cc(Cl)c(Cl)s1 (stereo in doubt) [Compound 8]"
  assayed.system: "HCV replicon in Huh7 cells"
  pEC50: "6.00 to 7.00"
- compound: "C=CC1C[C@]1(NC(=O)[C@@H]1C[C@@H](Oc2cc(-c3ccccc3)nc3cc(OC)ccc23)CN1C(=O)[C@@H](NC(=O)OC(C)(C)C)C(C)(C)C)C(=O)NS(=O)(=O)c1sc(C)nc1C (stereo in doubt) [Compound 9]"
  assayed.system: "HCV replicon in Huh7 cells"
  pEC50: "6.00 to 7.00"
- compound: "C=CC1C[C@]1(NC(=O)[C@@H]1C[C@@H](Oc2cc(-c3ccccc3)nc3cc(OC)ccc23)CN1C(=O)[C@@H](NC(=O)OC(C)(C)C)C(C)(C)C)C(=O)NS(=O)(=O)c1cc([N+](=O)[O-])c(Cl)s1 (stereo in doubt) [Compound 16]"
  assayed.system: "HCV replicon in Huh7 cells"
  pEC50: "6.00 to 7.00"

* * *

- Tested on: HCV replicon in Huh7 cells
- experimental.protocol: HCV replicon cell-based assay (FRET)
- Parameters: species or system HCV strain 1B
- measurement.parameters: Hepatitis C virus, Huh-7; replicon, activity range; read-out: EC50 a, b, c (Activity Table)
Quick reference for EC50 among some compounds
endpoint.name: EC50

- compound: "C=CC1C[C@]1(NC(=O)[C@@H]1C[C@@H](Oc2cc(-c3ccccc3)nc3cc(OC)ccc23)CN1C(=O)[C@@H](NC(=O)OC(C)(C)C)C(C)(C)C)C(=O)NS(=O)(=O)C1CCS(=O)(=O)C1 (mixture of isomers)"
  result.value: "100 to 1000 nM"
- compound: "C=CC1C[C@]1(NC(=O)[C@@H]1C[C@@H](Oc2cc(-c3ccccc3)nc3cc(OC)ccc23)CN1C(=O)[C@@H](NC(=O)OC(C)(C)C)C(C)(C)C)C(=O)NS(=O)(=O)c1ccc([N+](=O)[O-])s1 (stereo in doubt)"
  result.value: "100 to 1000 nM"
- compound: "C=CC1C[C@]1(NC(=O)[C@@H]1C[C@@H](Oc2cc(-c3ccccc3)nc3cc(OC)ccc23)CN1C(=O)[C@@H](NC(=O)OC(C)(C)C)C(C)(C)C)C(=O)NS(=O)(=O)c1cc(Br)c(Cl)s1 (stereo in doubt)"
  result.value: "1000 to 10000 nM"
- compound: "C=CC1C[C@]1(NC(=O)[C@@H]1C[C@@H](Oc2cc(-c3ccccc3)nc3cc(OC)ccc23)CN1C(=O)[C@@H](NC(=O)OC(C)(C)C)C(C)(C)C)C(=O)NS(=O)(=O)c1cccs1 (stereo in doubt)"
  result.value: "< 100 nM"
- compound: "C=CC1C[C@]1(NC(=O)[C@@H]1C[C@@H](Oc2cc(-c3ccccc3)nc3cc(OC)ccc23)CN1C(=O)[C@@H](NC(=O)OC(C)(C)C)C(C)(C)C)C(=O)NS(=O)(=O)c1nc(NC(C)=O)sc1C (stereo partly drawn)"
  result.value: "1000 to 10000 nM"
- compound: "C=CC1C[C@]1(NC(=O)[C@@H]1C[C@@H](Oc2cc(-c3ccccc3)nc3cc(OC)ccc23)CN1C(=O)[C@@H](NC(=O)OC(C)(C)C)C(C)(C)C)C(=O)NS(=O)(=O)c1cc(Cl)c(Br)s1 (stereo partly drawn)"
  result.value: "100 to 1000 nM"
- compound: "C=CC1C[C@]1(NC(=O)[C@@H]1C[C@@H](Oc2cc(-c3ccccc3)nc3cc(OC)ccc23)CN1C(=O)[C@@H](NC(=O)OC(C)(C)C)C(C)(C)C)C(=O)NS(=O)(=O)c1nnc(NC(C)=O)s1 (stereo in doubt)"
  result.value: "1000 to 10000 nM"
- compound: "C=CC1C[C@]1(NC(=O)[C@@H]1C[C@@H](Oc2cc(-c3ccccc3)nc3cc(OC)ccc23)CN1C(=O)[C@@H](NC(=O)OC(C)(C)C)C(C)(C)C)C(=O)NS(=O)(=O)c1ccc(Cl)s1 (stereo in doubt)"
  result.value: "100 to 1000 nM"
- compound: "C=CC1C[C@]1(NC(=O)[C@@H]1C[C@@H](Oc2cc(-c3ccccc3)nc3cc(OC)ccc23)CN1C(=O)[C@@H](NC(=O)OC(C)(C)C)C(C)(C)C)C(=O)NS(=O)(=O)c1ccc(C)cn1 (stereo in doubt)"
  result.value: "100 to 1000 nM"

* * *

- assayed.system: HCV NS3/4A protease complex (BMS strain) (Hepatitis C virus genotype 1a, UniProt P27958, C1454S)
- Construct: HCV NS3/4A protease complex (amino acids 1027 to 1711); inferred from pET21b vector and Ni-NTA purification; made in house; host or cells: Escherichia coli BL21 (DE3), pET21b
- Sequence (P27958 1027-1657 C1454S): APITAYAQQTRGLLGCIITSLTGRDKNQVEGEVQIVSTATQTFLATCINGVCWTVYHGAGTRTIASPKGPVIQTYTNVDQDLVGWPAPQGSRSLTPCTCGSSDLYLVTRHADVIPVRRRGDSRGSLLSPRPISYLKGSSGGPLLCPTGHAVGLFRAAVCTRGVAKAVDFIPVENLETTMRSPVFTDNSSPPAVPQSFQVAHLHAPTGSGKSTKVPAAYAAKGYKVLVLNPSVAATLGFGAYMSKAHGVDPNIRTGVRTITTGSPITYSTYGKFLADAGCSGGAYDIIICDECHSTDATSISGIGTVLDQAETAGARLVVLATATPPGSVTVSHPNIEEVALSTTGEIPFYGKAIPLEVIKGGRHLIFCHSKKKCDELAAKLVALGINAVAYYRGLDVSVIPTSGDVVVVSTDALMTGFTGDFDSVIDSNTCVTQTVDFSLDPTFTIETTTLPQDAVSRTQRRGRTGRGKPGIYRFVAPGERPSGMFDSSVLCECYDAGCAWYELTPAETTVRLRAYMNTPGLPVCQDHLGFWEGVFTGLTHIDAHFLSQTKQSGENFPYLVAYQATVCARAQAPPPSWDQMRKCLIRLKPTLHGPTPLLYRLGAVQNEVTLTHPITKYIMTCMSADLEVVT
- Sequence (P27958 1658-1711 partner, looked up, stated change not applied): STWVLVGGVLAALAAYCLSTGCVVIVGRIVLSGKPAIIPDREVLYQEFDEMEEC
- experimental.protocol: Recombinant HCV NS3/4A protease complex FRET peptide assay, BMS strain
- Type: biochemical, HCV genotype 1a
- measurement.parameters: NS3/4A BMS Strain, activity range; read-out: IC50 a, b, c (Activity Table)

- compound: "C=CC1C[C@]1(NC(=O)[C@@H]1C[C@@H](Oc2cc(-c3ccccc3)nc3cc(OC)ccc23)CN1C(=O)[C@@H](NC(=O)OC(C)(C)C)C(C)(C)C)C(=O)NS(=O)(=O)c1nc2ccc(OCC)cc2s1 (stereo in doubt)"
  IC50: "100 to 1000 nM"
- compound: "C=CC1C[C@]1(NC(=O)[C@@H]1C[C@@H](Oc2cc(-c3ccccc3)nc3cc(OC)ccc23)CN1C(=O)[C@@H](NC(=O)OC(C)(C)C)C(C)(C)C)C(=O)NS(=O)(=O)c1cc(Cl)c(Br)s1 (stereo partly shown)"
  IC50: "< 100 nM"
- compound: "C=CC1C[C@]1(NC(=O)[C@@H]1C[C@@H](Oc2cc(-c3ccccc3)nc3cc(OC)ccc23)CN1C(=O)[C@@H](NC(=O)OC(C)(C)C)C(C)(C)C)C(=O)NS(=O)(=O)c1ccc(Br)s1 (stereo in doubt)"
  IC50: "< 100 nM"
- compound: "C=CC1C[C@]1(NC(=O)[C@@H]1C[C@@H](Oc2cc(-c3ccccc3)nc3cc(OC)ccc23)CN1C(=O)[C@@H](NC(=O)OC(C)(C)C)C(C)(C)C)C(=O)NS(=O)(=O)c1ccc(Sc2ccc(Cl)cc2)s1 (stereo in doubt)"
  IC50: "100 to 1000 nM"
